assay: Microsomal metabolic stability, mouse liver microsomes; assay type: in vitro ADME; details: pH 7.4
Assign labels as follows, please: TRUE for remaining at 0.5 h, 0.1 μM below 90%; FALSE for remaining at 0.5 h, 0.1 μM equal to or exceeding 90%.

Consider the following illustrative entries.
{"columns": ["compound", "classification"],
 "data": [
  ["Clc1ccc2c(c1)nc(C1CCNCC1)n2Cc1ccccc1 [Compound 46a]", "FALSE"],
  ["NCCCNc1nc2cc(Br)ccc2n1Cc1ccccc1", "FALSE"],
  ["Brc1ccc2c(c1)nc(N1CCNCC1)n2Cc1ccccc1 [Compound 16b]", "FALSE"],
  ["Cl.Clc1ccc2c(nc(N3CCNCC3)n2Cc2ccccc2)c1Cl [Compound 42a]", "TRUE"]
]}

IN: Identify whether the compound "NC1CCN(c2nc3cc(Cl)ccc3n2Cc2ccccc2)CC1" records remaining at 0.5 h, 0.1 μM below 90%.
OUT: TRUE

Taken from paper PMC7114883.
